assay: Half-lives and pharmacokinetic parameters of polypeptides vs HM-1; details: in vivo
Peptide text beside a SMILES is read from it. * marks the point of attachment. X59 = O=C1C=CC(=O)N1c1cccc(CCCCCCCCC(=O)*)c1
Quantity: MRT inf (h)
Record the value in h, omitting the unit from your answer.

// query Identify measured MRT inf corresponding to C[C@H](NC(=O)CNC(=O)[C@H](CCCNC(=N)N)NC(=O)CCCCCCCCc1cccc(N2C(=O)C=CC2=O)c1)C(=O)N[C@@H](CC(=O)O)C(=O)N[C@@H](CCCNC(=N)N)C(=O)N[C@@H](C)C(=O)NCC(=O)NCC(=O)NCC(=O)NCC(=O)N[C@@H](CCCNC(=N)N)C(=O)NCC(=O)N[C@@H](CC(=O)O)C(=O)O [X32] (X59-RGADRAGGGGRGD-OH)
// result 55.3

###

system: retinal neovascularization (OIR model); test: Retinal vessels in OIR mice; type: in vivo, C57/B16 mice; settings: dose 0.05 μM in the vitreous chamber on day 13, retinal vessels evaluated on day 17, vs negative control
Peptide text beside a SMILES is read from it. * marks the point of attachment. X65 = O=C1C=CC(=O)N1c1cccc(CCCCCCCCCCCCC(=O)*)c1; X64 = O=C1C=CC(=O)N1c1cccc(CCCCCCCCCC(=O)*)c1; X66 = O=C1C=CC(=O)N1c1cccc(CCCCCCCC(=O)*)c1; X46 = O=C1C=CC(=O)N1c1cccc(CCCCC(=O)*)c1; X61 = O=C1C=CC(=O)N1c1cccc(CCCC(=O)*)c1; X75 = O=C1C=CC(=O)N1c1cccc(CC(=O)*)c1
Quick reference for Inhibition rate (%) among some molecules
Supply the numeric figure in %**, leaving out any unit text.

C[C@H](NC(=O)CNC(=O)[C@H](CCCNC(=N)N)NC(=O)Cc1cccc(N2C(=O)C=CC2=O)c1)C(=O)N[C@@H](CC(=O)O)C(=O)N[C@@H](CCCNC(=N)N)C(=O)N[C@@H](C)C(=O)NCC(=O)NCC(=O)NCC(=O)NCC(=O)N[C@@H](CCCNC(=N)N)C(=O)NCC(=O)N[C@@H](CC(=O)O)C(=O)O [X25] (X75-RGADRAGGGGRGD-OH); 54.72
C[C@H](NC(=O)CNC(=O)[C@H](CCCNC(=N)N)NC(=O)CCCc1cccc(N2C(=O)C=CC2=O)c1)C(=O)N[C@@H](CC(=O)O)C(=O)N[C@@H](CCCNC(=N)N)C(=O)N[C@@H](C)C(=O)NCC(=O)NCC(=O)NCC(=O)NCC(=O)N[C@@H](CCCNC(=N)N)C(=O)NCC(=O)N[C@@H](CC(=O)O)C(=O)O [X27] (X61-RGADRAGGGGRGD-OH); 50.00
C[C@H](NC(=O)CNC(=O)[C@H](CCCNC(=N)N)NC(=O)CCCCCCCCCCCCc1cccc(N2C(=O)C=CC2=O)c1)C(=O)N[C@@H](CC(=O)O)C(=O)N[C@@H](CCCNC(=N)N)C(=O)N[C@@H](C)C(=O)NCC(=O)NCC(=O)NCC(=O)NCC(=O)N[C@@H](CCCNC(=N)N)C(=O)NCC(=O)N[C@@H](CC(=O)O)C(=O)O [X36] (X65-RGADRAGGGGRGD-OH); 60.38
C[C@H](NC(=O)CNC(=O)[C@H](CCCNC(=N)N)NC(=O)CCCCc1cccc(N2C(=O)C=CC2=O)c1)C(=O)N[C@@H](CC(=O)O)C(=O)N[C@@H](CCCNC(=N)N)C(=O)N[C@@H](C)C(=O)NCC(=O)NCC(=O)NCC(=O)NCC(=O)N[C@@H](CCCNC(=N)N)C(=O)NCC(=O)N[C@@H](CC(=O)O)C(=O)O [X28] (X46-RGADRAGGGGRGD-OH); 58.49
C[C@H](NC(=O)CNC(=O)[C@H](CCCNC(=N)N)NC(=O)CCCCCCCc1cccc(N2C(=O)C=CC2=O)c1)C(=O)N[C@@H](CC(=O)O)C(=O)N[C@@H](CCCNC(=N)N)C(=O)N[C@@H](C)C(=O)NCC(=O)NCC(=O)NCC(=O)NCC(=O)N[C@@H](CCCNC(=N)N)C(=O)NCC(=O)N[C@@H](CC(=O)O)C(=O)O [X31] (X66-RGADRAGGGGRGD-OH); 52.83

Turning to the following molecule.
// query Identify the reported Inhibition rate (%) for the following entry. C[C@H](NC(=O)CNC(=O)[C@H](CCCNC(=N)N)NC(=O)CCCCCCCCCc1cccc(N2C(=O)C=CC2=O)c1)C(=O)N[C@@H](CC(=O)O)C(=O)N[C@@H](CCCNC(=N)N)C(=O)N[C@@H](C)C(=O)NCC(=O)NCC(=O)NCC(=O)NCC(=O)N[C@@H](CCCNC(=N)N)C(=O)NCC(=O)N[C@@H](CC(=O)O)C(=O)O [X33] (X64-RGADRAGGGGRGD-OH)
// result 58.02

Just for reference, patent US20200270309A1 is where these values come from.
